assay: Plasma protein binding, human plasma; format: in vitro ADME; details: 100 ng/mL, mean, read-out: plasma protein binding rate (converted)
Attribute measured: fraction unbound at 100 ng/mL

Tell me the measured fraction unbound at 100 ng/mL of CC1(C)OC2CC(=O)OCC23C1C/C(=N\OCCN1CCOCC1)C1(C)C3CC[C@@]2(C)[C@H](c3ccoc3)OC(=O)C3OC312 (stereo partly shown) [HY-071085] , please. 0.267

* * *

test: Pharmacokinetics after single-dose intravenous administration in beagle dogs; format: in vivo; conditions: both sexes, dog, plasma, S-IV 1.25 mg/kg
Attribute measured: half-life
Could you kindly put the unit after your number?

If you can, please state the reported half-life value of CC1(C)OC2CC(=O)OCC23C1C/C(=N\OCCN1CCOCC1)C1(C)C3CC[C@@]2(C)[C@H](c3ccoc3)OC(=O)C3OC312 (stereo partly shown) [HY-071085] . 42 min

* * *

assay: Pharmacokinetics after repeated-dose intragastric administration in rats; type: in vivo, Sprague Dawley rats; details: Sprague-Dawley, rat, plasma, po; female rats, R-IG 6.5 mg/kg, 28 days; read-out: Vss/F
Attribute measured: Vd/F at 28 days (L/kg)
State the answer as a number, implicitly in L/kg.

Give its Vd/F at 28 days value. Item: CC1(C)OC2CC(=O)OCC23C1C/C(=N\OCCN1CCOCC1)C1(C)C3CC[C@@]2(C)[C@H](c3ccoc3)OC(=O)C3OC312 (stereo partly shown) 292

* * *

assay: Pharmacokinetics after single-dose intragastric administration in rats; assay type: in vivo, Sprague Dawley rats; conditions: Sprague Dawley, rat, plasma, po; male rats, S-IG 13 mg/kg
Attribute measured: MRT (h)
# number only, unit h dropped from output

Entry under review: CC1(C)OC2CC(=O)OCC23C1C/C(=N\OCCN1CCOCC1)C1(C)C3CC[C@@]2(C)[C@H](c3ccoc3)OC(=O)C3OC312 (stereo partly shown) . Reported MRT? 1.94

* * *

experiment: Pharmacokinetics after repeated-dose intragastric administration in rats; type: in vivo, Sprague Dawley rats; settings: male, Sprague Dawley, rat, plasma, po, 6.5 mg/kg, male rats, R-IG 6.5 mg/kg, 14 days; read-out: AUC0-tn
Attribute measured: AUC (ng·h/mL)
I only need the number, in ng·h/mL, no unit after it.

Look at this molecule and give its reported AUC. CC1(C)OC2CC(=O)OCC23C1C/C(=N\OCCN1CCOCC1)C1(C)C3CC[C@@]2(C)[C@H](c3ccoc3)OC(=O)C3OC312 (stereo partly shown) 127

* * *

assay: Plasma protein binding, dog plasma; format: in vitro ADME; conditions: dog, dogs, concentration range 50–400 ng/mL, read-out: plasma protein binding rate (converted)
Attribute measured: fraction unbound

Given CC1(C)OC2CC(=O)OCC23C1C/C(=N\OCCN1CCOCC1)C1(C)C3CC[C@@]2(C)[C@H](c3ccoc3)OC(=O)C3OC312 (stereo partly shown) [HY-071085] , state its recorded fraction unbound. ~0.6

* * *

test: Pharmacokinetics after single-dose intragastric administration in rats; format: in vivo, Sprague Dawley rats; details: Sprague-Dawley, rat, plasma, po; male rats, S-IG 3.25 mg/kg
Attribute measured: Tmax (min)
Give just the numeric value; min need not be written.

For the compound shown here, CC1(C)OC2CC(=O)OCC23C1C/C(=N\OCCN1CCOCC1)C1(C)C3CC[C@@]2(C)[C@H](c3ccoc3)OC(=O)C3OC312 (stereo partly shown) , give the reported Tmax. 13.2

* * *

Test: Pharmacokinetics after single-dose intravenous administration in beagle dogs
Type: in vivo
Details: both sexes, dog, plasma, S-IV 1.25 mg/kg
Experimental: After the intravenous administration of 1.25 mg/kg HY-071085, there was also no gender difference for the plasma concentration time data in Figure 9. In vivo PK profiling in dogs: Beagle dogs (approximately 8–10 kg in weight) were purchased from Jiangsu Yadong Experimental Animal Research Institute Co. Ltd (Nanjing, China). […] According to the obtained plasma concentration time data, the pharmacokinetic parameters were calculated using Phoenix WinNonlin 8.1 software. […]
Attribute measured: AUC(0-inf) (ng·h/mL)
Field: numeric (ng·h/mL). Do not append units.

Any idea what its AUC(0-inf) is? The molecule is CC1(C)OC2CC(=O)OCC23C1C/C(=N\OCCN1CCOCC1)C1(C)C3CC[C@@]2(C)[C@H](c3ccoc3)OC(=O)C3OC312 (stereo partly shown) 594

* * *

experiment: Pharmacokinetics after single-dose intragastric administration in rats; type: in vivo, Sprague Dawley rats; conditions: Sprague Dawley, rat, plasma, po; male rats, S-IG 3.25 mg/kg; read-out: AUC0-tn
Attribute measured: AUC (ng·h/mL)
Your answer should be a plain number; it is taken to be in ng·h/mL.

Entry CC1(C)OC2CC(=O)OCC23C1C/C(=N\OCCN1CCOCC1)C1(C)C3CC[C@@]2(C)[C@H](c3ccoc3)OC(=O)C3OC312 (stereo partly shown) has what AUC? 20.8

* * *

experiment: Pharmacokinetics after repeated-dose intragastric administration in rats; format: in vivo, Sprague Dawley rats; settings: Sprague-Dawley, rat, plasma, po; female rats, R-IG 6.5 mg/kg, 28 days
Attribute measured: Tmax at 28 days (min)
Enter your answer as a number in min; do not include the unit.

Quick one: Tmax at 28 days of CC1(C)OC2CC(=O)OCC23C1C/C(=N\OCCN1CCOCC1)C1(C)C3CC[C@@]2(C)[C@H](c3ccoc3)OC(=O)C3OC312 (stereo partly shown) ? 19.8
